Values from patent US10188754B2

# key: entry, value: Signal (ppm)
assay: Screening of beta-hydroxy carboxylate analogs for CEST contrast (Table 4A); conditions: Concentration 25 mM
Use ppm as the unit, but write only the number.

Here is how some compounds turned out for Signal (ppm).
* Cc1ccc(NS(C)(=O)=O)c(C(=O)O)c1 [Entry 60] | 7.0
* CS(=O)(=O)Nc1ccc(Cl)cc1C(=O)O [Entry 59] | 7.3
* O=C(O)c1ccc(-c2ccc(F)cc2F)cc1O [Entry 45] | 9.3

Field: next compound
Note to self: Signal (ppm) recorded for O=C(O)c1cc(/N=N\c2ccc(S(=O)(=O)Nc3ccccn3)cc2)ccc1O [Entry 46] was 9.6

====

details: Table 5; 10 mM, pH 7.3-7.4, 37° C.
MEASUREMENT TYPE: kex (s⁻¹)
Reply with just the number (in s⁻¹).

Please review the entries below; each comes with its answer.
• CS(=O)(=O)Nc1ccccc1C(=O)O = 470
• CS(=O)(=O)Nc1ccc(N)cc1C(=O)O = 550
• O=C(O)c1ccccc1Nc1ccccc1 = 670
• Cc1ccc(S(=O)(=O)Nc2ccccc2C(=O)O)cc1 = 440

Next, consider the following compound.
Entry O=C(O)c1ccccc1NC(=O)C(F)(F)F , kex reported as 190

====

test: Screening of beta-hydroxy carboxylate analogs for CEST contrast (Table 4A); settings: Concentration 25 mM
kex values by entry
Answer with a number only, understood to be in s⁻¹.

# compound Cc1ccc(NS(C)(=O)=O)c(C(=O)O)c1 ; its kex = 500

Recorded kex (compound O=C(O)c1ccc(-c2ccc(F)cc2F)cc1O ): 650

In plain terms, O=C(O)c1cc(/N=N\c2ccc(S(=O)(=O)Nc3ccccn3)cc2)ccc1O has a documented kex of 1000

Recorded result, CS(=O)(=O)Nc1ccc(Cl)cc1C(=O)O , kex: 1000

====

assay: Screening of beta-hydroxy carboxylate analogs for CEST contrast (Table 4A); conditions: Concentration 10 mM
List of kex values.
Value expressed in s⁻¹; do not type the unit.

- O=C(O)c1ccccc1Nc1cccc(C(F)(F)F)c1: 1000
- O=C(O)c1cc(O)c(C(=O)O)cc1O: 990
- O=C(O)c1cc(Cl)ccc1O: 290
- O=C(O)c1cc2ccccc2c(Cc2c(O)c(C(=O)O)cc3ccccc23)c1O: 130
- O=C(O)c1cc([N+](=O)[O-])ccc1O: 5660

Input O=C(O)c1ccc2ccccc2c1O . Output kex: 220

Reported kex of O=C(O)c1ccccc1NC(=O)C(F)(F)F : 190

Given item O=C(O)c1ccccc1Nc1ccccc1 , the value recorded as its kex is 674

Lookup result for O=C(O)c1cc(Cl)cc(Cl)c1O ; measured kex: 1070

CS(=O)(=O)Nc1ccccc1C(=O)O has a reported kex of 470

The reported kex of the compound [O-][n+]1cccc2cccc(O)c21 was 32

What the record says about Nc1ccc(O)c(C(=O)O)c1 : kex is 380

Just so you know, measured kex for CS(=O)(=O)Nc1ccc(N)cc1C(=O)O came out at 550

// O=C(O)c1ccc(O)cc1O : kex value = 462

Reported kex ( Nc1cccc(C(=O)O)c1O ) = 410

What the record says about O=C(O)c1cc(O)ccc1O : kex is 400

For this compound ( O=C(O)c1cccc(F)c1O ), measured kex is 750

====

assay: Screening of beta-hydroxy carboxylate analogs for CEST contrast (Table 4A); conditions: Concentration 10 mM
MEASUREMENT TYPE: Signal (ppm)
Write the answer as a number in ppm, unit excluded.

// solved cases for Signal (ppm) follow
- O=C(O)c1cc(C(=O)O)c(O)cc1O [Entry 43]: 9.8
- O=C(O)c1cc(I)cc(I)c1O [Entry 33]: 10.8
- O=C(O)c1ccccc1Nc1ccccc1 [Entry 49]: 4.8

For the next question, use this compound.
Entry COc1cccc(O)c1C(=O)O [Entry 26] ; Signal (ppm) = 9.0

====

assay type: physicochemical; details: Table 5; 10 mM, pH 7.3-7.4, tsat = 3 sec, ω1 = 3.6 μT, 37° C.
Criterion: Signal (ppm) strictly less than 6 ppm. Met: Satisfied. Not met: Not satisfied.

• Cc1ccc(S(=O)(=O)Nc2ccccc2C(=O)O)cc1 = Not satisfied

In the record for O=C(O)c1ccccc1NC(=O)C(F)(F)F , is Signal (ppm) less than 6 ppm?
Not satisfied

Signal (ppm) strictly < 6 ppm for this compound? O=C(O)c1ccccc1Nc1ccccc1
Satisfied

Determine if CS(=O)(=O)Nc1ccc(N)cc1C(=O)O shows Signal (ppm) strictly lower than 6 ppm.
Not satisfied

Would you kindly verify if Signal (ppm) of CS(=O)(=O)Nc1ccccc1C(=O)O is strictly less than 6 ppm?
Not satisfied

====

format: physicochemical; conditions: Table 2; 10 mM, pH 7.3-7.4, tsat = 3 sec, ω1 = 3.6 μT, 37° C.
MEASUREMENT TYPE: Signal (ppm)
Lab book: enter the figure in ppm, no units written.

Check out these entries, answers already filled in.
• O=C(O)c1ccc(O)cc1O [Compound 16] = 9.5
• O=C(O)c1ccc(C(=O)O)c(O)c1 [Compound 18] = 9.3
• O=C(O)c1ccc([N+](=O)[O-])cc1O [Compound 19, 2-hydroxy-4-nitrobenzoic acid] = 9.5

Data point: Nc1ccc(C(=O)O)c(O)c1 [Compound 17] ; Signal (ppm) = 9.5

What the record says about O=C(O)c1cc([N+](=O)[O-])ccc1O [Compound 14, 5-nitrosalicylic acid] : Signal (ppm) is 10.3

====

details: Table 4; 10 mM, pH 7.3-7.4, 37° C.
Give YES when the value for kex is at least 400 s⁻¹. Give NO when it is less.

Recorded results for 2 molecules are shown here.
* CC(C)(C)c1cc(C(=O)O)c(O)c(C(C)(C)C)c1 [Compound 24, 3,5-di-tert-butylsalicylic acid] | NO
* O=C(O)c1ccc2ccccc2c1O [Compound 29, 1-Hydroxy-2-naphthoic acid] | NO

Could you please find out whether O=C(O)c1cc(I)cc(I)c1O [Compound 28] has kex that meets 400 s⁻¹ or exceeds it?
NO

Dear colleague, could you confirm whether Cc1cccc(C(=O)O)c1O [Compound 23, 3-Methylsalicylic acid] has kex at or above 400 s⁻¹?
NO

Test whether the molecule COc1cccc(C(=O)O)c1O [Compound 32, 3-methoxysalicylic acid] records kex of 400 s⁻¹ or higher.
YES

====

format: physicochemical; conditions: Table 4; 10 mM, pH 7.3-7.4, tsat = 3 sec, ω1 = 3.6 μT, 37° C.
MEASUREMENT TYPE: Signal (ppm)
Give your result in ppm as a bare value.

* COc1cccc(C(=O)O)c1O | 9.3
* Cc1cccc(C(=O)O)c1O | 9.5
* O=C(O)c1cccc(C(=O)O)c1O [Compound 35, 2-hydroxyisophthalic acid] | 9.5
* Nc1cccc(C(=O)O)c1O | 9.0

Kindly note the recorded Signal (ppm) for O=C(O)c1ccc2cccnc2c1O [Compound 30, 8-hydroxy-7-quinolinecarboxylic acid] , which is 10.3

====

assay: Screening of beta-hydroxy carboxylate analogs for CEST contrast (Table 4A); settings: Concentration 10 mM
Signal (ppm) for assorted molecules
Numeric only. Scale: ppm

• [O-][n+]1cccc2cccc(O)c21 = 9.5

Looking up O=C(O)c1ccc([N+](=O)[O-])cc1O , I see its Signal (ppm) listed as 9.5

Reported Signal (ppm) for O=C(O)c1ccc(O)cc1O was 9.5

Looking up O=C(O)c1c(O)ccc2ccccc12 , I found its Signal (ppm) recorded as 9.5

Data point: O=C(O)c1ccccc1O ; Signal (ppm) = 9.3

Field Signal (ppm) (entry O=C(O)c1cccc(C(=O)O)c1O ) reads 9.5

Recorded Signal (ppm) (molecule O=C(O)c1cccc([N+](=O)[O-])c1O ): 12.0

For O=C(O)c1cc(O)c(C(=O)O)cc1O the molecule record lists Signal (ppm) as 8.3

Lookup result for Cc1ccc(S(=O)(=O)Nc2ccccc2C(=O)O)cc1 ; measured Signal (ppm): 7.8

// Signal (ppm) value for O=C(O)c1c(O)cccc1O : 9.3

Quick note, Signal (ppm) for O=C(O)c1ccc2ccccc2c1O landed at 10.5

Please fill in: Signal (ppm) reported for O=C(O)c1ccc(C(=O)O)c(O)c1 = 9.3

Please fill in: Signal (ppm) reported for CS(=O)(=O)Nc1ccc(N)cc1C(=O)O = 6.3

====

assay: Screening of beta-hydroxy carboxylate analogs for CEST contrast (Table 4A); conditions: Concentration 10 mM
MEASUREMENT TYPE: Signal (ppm)

- O=C(O)c1cc([N+](=O)[O-])cc([N+](=O)[O-])c1O [Entry 20]: None
- O=C(O)c1cccnc1Nc1cccc(C(F)(F)F)c1 [Entry 54]: None
- O/N=C/c1ccccc1O [Entry 10]: None

====

assay: Screening of beta-hydroxy carboxylate analogs for CEST contrast (Table 4A); details: Concentration 10 mM
MEASUREMENT TYPE: kex (s⁻¹)
Field format: number, assumed s⁻¹, no unit text.

Worked cases, answers included:
• O=C(O)c1c(O)ccc2ccccc12 = 4400
• O=Cc1cccc(C(=O)O)c1O = 510
• O=C(O)c1ccccc1O = 400

The value of kex measured for the molecule O=C(O)c1ccc(C(=O)O)c(O)c1 turned out to be 420

What the record says about O=C(O)c1cc(I)cc(I)c1O : kex is 310

Summary for this molecule, Nc1ccc(C(=O)O)c(O)c1 : kex is 384

Noted for O=C(O)c1cccc(O)c1O : its kex reads 2000

Note to self: kex recorded for COc1cccc(C(=O)O)c1O was 480

Data point: O=C(O)c1c(O)cccc1O ; kex = 30
